Please provide measured Kp uu at 4 h for the entries that follow.
# protocol.summary: Unbound brain to plasma concentration ratio, Kp of the compound in rat at 1 mg/kg, iv for 4 hrs by LC-MS/MS analysis
# Assay type: ADME, organism-based
# condition.info: brain and plasma, read-out: K(p,uu,brain)
Give your answer as a number; write no unit.

Identify the reported Kp uu at 4 h for the following entry. `C[C@H]1CCCOc2cc(F)ccc2C(=O)Nc2cccc(n2)-c2nncn21`
0.09

Identify the reported Kp uu at 4 h for the following entry. `C[C@@H]1CCOc2cc(F)ccc2C(=O)Nc2cccc(n2)-c2nncn2C1`
0.17

Identify the reported Kp uu at 4 h for the following entry. `CN(C)CCn1cc(-c2ccc3c(c2)C(=O)Nc2cccc(n2)-c2nncn2CCCCO3)cn1`
1
